List of Z-AUC values.
Assay: qHTS drug screen for cell cycle checkpoint inhibitors in PARPi-resistant BRCA-mutant ovarian cancer cell lines. (AID 1963452)
Settings: PEO1/OlaR viability, CellTiter-Glo luminescence, 96 h; measured here: PEO4 Z-AUC; stronger effect = lower value
measurement.kind: Z-AUC

# compound, measurement.kind, numeric.result
records = [
    ("Cn1ncc(Cl)c1-c1cc(C(=O)NC(CN)Cc2ccc(F)c(F)c2)oc1Cl (centres undefined)", "Z-AUC", 0.353),
    ("Nc1nc(OCc2cc(Br)cs2)c2[nH]cnc2n1", "Z-AUC", 0.221),
    ("CC(C)(C)Sc1c(CC(C)(C)C(=O)O)n(Cc2ccc(Cl)cc2)c2ccc(OCc3ccc4ccccc4n3)cc12", "Z-AUC", 0.962),
    ("COc1cc(OC)c2c(=O)[nH]c(-c3cc(C)c(OCCO)c(C)c3)nc2c1", "Z-AUC", 1.15),
    ("C=CC(=O)Nc1ccc2ncnc(Nc3cccc(Br)c3)c2c1", "Z-AUC", -0.968),
    ("CC(=O)N1CCN(CCOc2ccc(C3CCN(C4=Nn5c(nnc5C(F)(F)F)CC4)CC3)cc2)CC1", "Z-AUC", -0.776),
    ("CC(C)NC(=O)COc1cccc(-c2nc(Nc3ccc4[nH]ncc4c3)c3ccccc3n2)c1", "Z-AUC", -1.12),
    ("COc1ccc(CNc2nc(N(CCO)CCO)nc3c2ncn3C(C)C)cc1", "Z-AUC", -0.51),
    ("Cc1cc(-c2nc3cc(F)ccc3s2)ccc1NC(=O)[C@@H](N)CCCCN", "Z-AUC", -1.32),
    ("COCCNCc1ccc(-c2cc3nccc(Oc4ccc(NC(=O)C5(C(=O)Nc6ccc(F)cc6)CC5)cc4F)c3s2)nc1", "Z-AUC", -0.561),
    ("COC(=O)N1CC2(CC2)C[C@H](C(=O)NO)[C@H]1C(=O)N1CCN(c2ccccc2)CC1", "Z-AUC", 0.341),
    ("COc1cc(S(C)(=O)=O)ccc1Nc1nc2ccc(-c3ccc(NC(=O)[C@H](C)c4ccc(F)cc4)cc3)cn2n1", "Z-AUC", 0.043),
    ("O=C(Cc1cccc(OC(F)(F)F)c1)Nc1ccc(CCCCc2nnc(NC(=O)Cc3ccccn3)s2)nn1", "Z-AUC", -1.03),
    ("Cc1cc(C(=O)Nc2cc(Nc3ccc4c(/C=C/c5ccccn5)n[nH]c4c3)ccc2F)n(C)n1", "Z-AUC", -0.912),
    ("FC(F)(F)c1ccc(/C=C/c2nc(COc3ccc(CCCCn4ccnn4)cc3)co2)cc1", "Z-AUC", -2.45),
    ("Nc1nccc(-c2c(-c3ccc(F)cc3)ncn2C2CCCCC2)n1", "Z-AUC", 0.204),
    ("C[C@@H](c1ccc2nccn2c1)n1nnc2ncc(-c3cnn(C)c3)nc21", "Z-AUC", -0.199),
    ("CCn1nc(C2CCN(C(=O)CCO)CC2)nc1-c1cnc(N)c(-c2nnc(C(C)(C)C)o2)n1", "Z-AUC", 0.568),
    ("CCC[C@H](N[C@H]1CCc2cc(F)cc(F)c2C1)C(=O)Nc1cn(C(C)(C)CNCC(C)(C)C)cn1", "Z-AUC", -0.108),
]
